Where do the numbers come from? From patent US20260008746A1.

cell survival rate lower than that of YK-108 values for the compounds below.
# System: 293T cells
# protocol-description: Cell survival rate determination (CCK-8)
# Type: cell-based
# settings: cell survival rate of YK-108 minus that of named substance
Entry rule: numbers only, all in %.

Reference set (5 entries):
[
  {
    "compound": "CCCCCCCCCC(=O)OCCCCN(CCO)CCCCCC(=O)OCC(CCCCCCCC)CCCCCCCC [YK-106]",
    "target-or-system": "293T cells",
    "value-observed": 30.27
  },
  {
    "compound": "CCCCCCCCCCOC(=O)CCCN(CCCCCC(=O)OCCC(CCCCCC)CCCCCC)C[C@@H](O)CO [YK-115]",
    "target-or-system": "293T cells",
    "value-observed": 30.79
  },
  {
    "compound": "CCCCCCCCCCOC(=O)CCCCCN(CCO)CCCCCC(=O)OCCC(CCCCCC)CCCCCC [YK-103]",
    "target-or-system": "293T cells",
    "value-observed": 44.61
  },
  {
    "compound": "CCCCCCCCCCOC(=O)CCCN(CCCCCC(=O)OCCC(CCCCCC)CCCCCC)C1CCCC1O (stereo not shown) [YK-120]",
    "target-or-system": "293T cells",
    "value-observed": 16.43
  },
  {
    "compound": "CCCCCCC(CCCCCC)CCOC(=O)CCCCCCCN(CCO)CCCCCCCC(=O)OCCC(CCCCCC)CCCCCC [Compound 23, reference compound]",
    "target-or-system": "293T cells",
    "value-observed": 18.95
  }
]

Asked: Looking for the measured cell survival rate lower than that of YK-108 of CCCCCCCCCC(=O)OCCCCN(CCO)CCCCCC(=O)OCCC(CCCCCC)CCCCCC [YK-109] , can you help?
Given back: 20.41

Asked: Looking for the measured cell survival rate lower than that of YK-108 of CCCCCCCCCCOC(=O)CCCN(CCO)CCCCCCOC(=O)CC(CCCCCC)CCCCCC [YK-105] , can you help?
Given back: 11.28

====

# System: 293T cells
# protocol-description: Cell survival rate determination (CCK-8)
# Format: cell-based
# settings: cell survival rate of YK-101 minus that of named substance
attribute-measured: cell survival rate lower than that of YK-101

Reference set (2 entries):
[
  {
    "molecule": "CCCCCCCCCCOC(=O)CCCN(CCO)CCCCCC(=O)OCC(CCCCCCCC)CCCCCCCC [YK-009, reference compound]",
    "value-observed": "16.55%"
  },
  {
    "molecule": "CCCCCCCCCCOC(=O)CCCN(CCCCCC(=O)OCC(CCCCCCCC)CCCCCCCC)CCOCCO",
    "value-observed": "12.56%"
  }
]

Asked: Looking for the measured cell survival rate lower than that of YK-101 of CCCCCCCCCCOC(=O)CCCN(CCCCCC(=O)OCCC(CCCCCC)CCCCCC)CCC(C)(C)O , can you help?
Given back: 9.85%

Asked: Looking for the measured cell survival rate lower than that of YK-101 of CCCCCCCCCCOC(=O)CCCN(CCCCCC(=O)OCC(CCCCCCCC)CCCCCCCC)CCOCCOCCO , can you help?
Given back: 10.97%

====

# System: BALB/C mice
# protocol-description: In vivo imaging of Fluc-mRNA expression in mice delivered by LNP formulations
# settings: 24 h
attribute-measured: average radiation intensity of YK-108, times that of named substance (times)
Entry rule: numbers only, all in times.

Reference set (4 entries):
[
  {
    "compound": "CCCCCCCCCCCOC(=O)CCCCCN(CCO)CCCCCCCC(=O)OC(CCCCCCCC)CCCCCCCC [SM-102, reference compound]",
    "value-observed": 11.9
  },
  {
    "compound": "CCCCCCCCCCOC(=O)CCCN(CCCCCC(=O)OCCC(CCCCCC)CCCCCC)CCOCCO [YK-123]",
    "value-observed": 23.9
  },
  {
    "compound": "CCCCCCCCCCCCC(O)CN(C)CCCCCC(=O)OCC(CCCCCC)CCCCCCCC (stereo not drawn) [HHMA, reference compound]",
    "value-observed": 12.2
  },
  {
    "compound": "CCCCCCCCC(CCCCCCCC)OC(=O)CCCCCCCN(CCO)CCCCCCCC(=O)OCCC(CCCCCC)CCCCCC [Compound 21, reference compound]",
    "value-observed": 12.8
  }
]

Asked: Looking for the measured average radiation intensity of YK-108, times that of named substance of CCCCCCCCCCOC(=O)CCCN(CCCCCC(=O)OCCC(CCCCCC)CCCCCC)C1CCCC1O (stereo not drawn) [YK-120] , can you help?
Given back: 14.8

Asked: Looking for the measured average radiation intensity of YK-108, times that of named substance of CCCCCCCCCC(=O)OCCCCN(CCO)CCCCCC(=O)OCC(CCCCCCCC)CCCCCCCC [YK-106] , can you help?
Given back: 13.3
